Target: human GLP-1 receptor (human, UniProt P43220 24-463)
Sequence (P43220 24-463): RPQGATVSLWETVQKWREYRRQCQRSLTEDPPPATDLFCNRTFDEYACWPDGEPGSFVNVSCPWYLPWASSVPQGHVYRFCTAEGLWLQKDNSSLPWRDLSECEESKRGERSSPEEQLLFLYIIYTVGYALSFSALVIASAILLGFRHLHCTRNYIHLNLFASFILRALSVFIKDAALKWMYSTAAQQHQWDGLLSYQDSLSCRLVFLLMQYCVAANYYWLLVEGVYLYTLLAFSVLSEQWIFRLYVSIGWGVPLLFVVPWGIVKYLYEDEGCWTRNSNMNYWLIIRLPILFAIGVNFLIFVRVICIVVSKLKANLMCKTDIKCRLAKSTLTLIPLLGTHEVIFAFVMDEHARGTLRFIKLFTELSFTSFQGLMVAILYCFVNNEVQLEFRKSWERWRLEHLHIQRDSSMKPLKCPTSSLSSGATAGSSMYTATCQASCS
Test: cell-based or functional assay
*1 amine or outer side, *2 acyl side, *3 side chain or, on linkers, in order; H or OH if unused. Where no end group is shown, it is not given here. Side-chain parts run from the residue outwards. [ ]: non-standard residue; d: D form. The star is where a group is joined. C20 diacid = O=C(O)CCCCCCCCCCCCCCCCCCC(=O)*; γGlu = O=C(O)[C@H](CCC(=O)[*:2])N[*:1]; Desaminohistidyl = O=C(CCc1c[nH]cn1)*; βAsp = O=C(O)[C@H](CC(=O)[*:2])N[*:1]; Trx = NC[C@H]1CC[C@H](C(=O)O)CC1; AEEA = NCCOCCOCC(=O)O; Aib = CC(C)(N)C(=O)O; Inp = O=C(O)C1CCNCC1

>  <BINDER>
[Desaminohistidyl]AEGTFTSDVSSYLEEQAAREFIEWLVRGRK([AEEA-AEEA-γGlu-Trx-C20 diacid])

>  <Potency [EC50/nM], cAMP formation [nM]>
0.66

$$$$
>  <BINDER>
H[Aib]EGTFTSDVSSYLEEQAAREFIK([AEEA-AEEA-βAsp-Inp-C20 diacid])WLVKGRG

>  <Potency [EC50/nM], cAMP formation [nM]>
0.52

$$$$
>  <BINDER>
HXEGTFTSDVSSYLEEQAAREFIAWLVRGRK (not fully specified; Aib at 8; Lys37 is bound to the peptide through its epsilon amino group (epsilon-Lys37) and acylated at N-alpha with the side chain given in the name)

>  <Potency [EC50/nM], cAMP formation [nM]>
0.08

$$$$
